Entry source: the supplement of paper PMC12042874

Test: amyloid nucleation score (Sup35N fusion, yeast selection) (log enrichment); library NNK3; higher = more nucleation; inactive = no reads after selection;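 note: zero at mode of non-aggregating sequences after 7 days selection at 30°C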
Quantity Kind: amyloid nucleation score

INSERT INTO assay_data (substance, quantity_kind, reported_result) VALUES
  ('FSVDYQHRCQGQYPYIWYSN', 'amyloid nucleation score', 'inactive'),
  ('GCARLAIMSKLPSCW', 'amyloid nucleation score', 'inactive'),
  ('RVSYKICKERKF', 'amyloid nucleation score', 'inactive'),
  ('YVIGDVIIFPSSFMINCLYC', 'amyloid nucleation score', 2.4),
  ('NEVETESCIELTFPMQYWQV', 'amyloid nucleation score', 2.24),
  ('PRNRSVGKMLTRINNSFSRA', 'amyloid nucleation score', 'inactive'),
  ('REYSEA', 'amyloid nucleation score', 'inactive'),
  ('QLLQVWVNMFKTTAISWIVF', 'amyloid nucleation score', 'inactive'),
  ('RDIVVNRLVRACSLGFLCLG', 'amyloid nucleation score', -0.792);

###

Test: amyloid nucleation score (Sup35N fusion, yeast selection) (log enrichment); library NNK3; higher = more nucleation; inactive = no reads after selection
Quantity Kind: amyloid nucleation score

INSERT INTO results (substance, quantity_kind, reported_result) VALUES
  ('CSSRMVFLRHLAGFLWGRPP', 'amyloid nucleation score', 0.038),
  ('GPIEPFSMLSM', 'amyloid nucleation score', -0.291),
  ('LTRRSRLWHMSSYTWKKDVI', 'amyloid nucleation score', 0.084),
  ('NVYNMYS', 'amyloid nucleation score', 0.945);

###

amyloid nucleation score values for the sequences below.
Test: amyloid nucleation score (Sup35N fusion, yeast selection) (log enrichment); library NNK2; higher = more nucleation; inactive = no reads after selection
Quantity Kind: amyloid nucleation score

INSERT INTO assay_data (primary_sequence, reported_result) VALUES
  ('SPTGPMYRNLLSKKPYVR', -0.909),
  ('THIAVIGISGTDEENLKLGR', 6.44),
  ('FTVLCYSSDIMEDFRFTHHN', 4.12),
  ('RVYMCCSSYCGNITKVQ', 8.03),
  ('LMVESNWHALHLVYVFSYI', 0),
  ('DAAEISGLCLYDFLTGDLEQ', 2.27),
  ('HKMADSTNDSNRLEFDMFNE', -0.881),
  ('LCLVQLSDSCNQ', 7.92),
  ('SLAHQAFAEPSWTKVEE', 0.278);

###

Test: amyloid nucleation score (Sup35N fusion, yeast selection) (log enrichment); library NNK3; higher = more nucleation; inactive = no reads after selection
Quantity Kind: amyloid nucleation score

INSERT INTO results (substance, reported_result) VALUES
  ('IFSFTLSLSFGVFLNMFSVD', 'inactive'),
  ('SSLQHSAW', 'inactive'),
  ('FESMGFHPRSVIYEYVCELN', 'inactive'),
  ('WHTSSQVSEGLEHAYVCKFE', 'inactive'),
  ('RAGYVWTAVLRPHSNVAWFV', 'inactive'),
  ('VILNCR', 'inactive'),
  ('RSAVISTLRYSW', -0.289),
  ('YMVWMLNQDRSACGINIMSI', 1.33),
  ('GRCNLGSMNNWFKLPLKSVR', 'inactive'),
  ('NVWLNGWIVGMGYNNWHILW', 1.93),
  ('HNKAETTPLSHCMQSSSKLL', 'inactive'),
  ('KNTGMGDTVSFRLVSAFEHI', 'inactive'),
  ('YFINMRKYCTCPDMCEVLRI', 0.574),
  ('TTKQKV', 'inactive'),
  ('RHYLLCYIKRHTRLQIYKFS', 'inactive'),
  ('YWFSQFVIFGCSS', 'inactive'),
  ('PAVPLQSNLRRETTFRAGCL', 'inactive'),
  ('KMCDECIVLS', 'inactive'),
  ('CFNNKVVNTWRICMVGLSLS', 'inactive'),
  ('DTRFWTARLLYFFI', 'inactive'),
  ('SFSSLQFVNIATPHY', 0.42),
  ('VVCDNYG', 0.607),
  ('VDNWFVFFYGYSGLLYGSHY', 'inactive'),
  ('FMVSRMYEWCVCSVQCLMLF', 'inactive'),
  ('WSWRDLEGQNSGKEAVILEL', 'inactive'),
  ('ALFLACNH', 1.59),
  ('ELTEDLVDL', 'inactive'),
  ('SAVYMVSGIGNNSHTSAFIR', 0.614),
  ('LIARALFNSKWQDTSLSL', 'inactive'),
  ('GVADGGMPRNSSWRLSGVVR', 'inactive'),
  ('ESPAASMVLHRGRLVVCSLS', 'inactive'),
  ('FCFRDIYKRSMSRSAYDSG', 'inactive'),
  ('HGFLFCGFSNYKCVQGNMTF', 'inactive'),
  ('CAKDMMCRVYMSLLLHLGVD', 'inactive'),
  ('CKMRYEDESWFKWVVDLSFN', 'inactive'),
  ('HFRDAVGWGFINGCHPAGSG', 'inactive'),
  ('VYHLQLLVGVRGLNPRCAQE', 'inactive'),
  ('VCNSYCMPRPRILQSQGGMG', 'inactive'),
  ('FLWLYQDCVV', 'inactive'),
  ('NLGRFLFSICCASLFAGCNG', -0.245),
  ('NFSMMPTMLRRVWIGMCSSM', 'inactive'),
  ('MRLVACA', 'inactive'),
  ('SFSKLVFR', 'inactive'),
  ('SDEFGDHEGCMLAFRASAVW', 'inactive'),
  ('YYWLLIGLLFRVLLMLVQGK', 'inactive'),
  ('SAGAQSHSIYRAAVLSACLY', 'inactive'),
  ('GYGHVIYLYYCQRHDNPQVQ', 'inactive'),
  ('MIRTFKNSYISNGHCMVRRH', 'inactive'),
  ('SDRAHGQFFRPGERLPSNPW', -0.069),
  ('DGRSFAVDAIVYCHLYR', 0.758),
  ('GVFAIGANLQANVGNDRAYT', 'inactive'),
  ('RLRQTATCIRFVFAGNVLAN', 0.018),
  ('IFVLVYNISSNTGNYSIGFV', 0.934),
  ('IYKSTFFKVRTSGPGRHFGF', 0.186),
  ('IMKFDSRAYNGYMQMIRPGV', 'inactive'),
  ('ISVVMDNSACG', 'inactive'),
  ('RKILVVFLSWFNFKVYSNSM', 'inactive'),
  ('TPRKTLSDVLFFRLILS', 'inactive'),
  ('PSVFVRVLEKNRDLMMRTAS', 'inactive'),
  ('VLRSAYAALFLNRFSRFDCR', 'inactive'),
  ('RYLRKEDDWFIDRAVD', 'inactive'),
  ('GNIAYSVLMWSDCKTCQCDV', 1.82),
  ('GRVESSVIYRPLNLGGGQES', 'inactive'),
  ('WQCGNVLLSYAQYNAVLVAW', 'inactive'),
  ('KSYLFWSLI', 'inactive'),
  ('YTCNST', 'inactive'),
  ('LPDEEHVRYVCYLYDM', 'inactive'),
  ('EVAWVYEYQL', 'inactive'),
  ('LRSSYQNLDPSVCQQFHLGE', -0.075),
  ('VQVMETEMRSVVA', 'inactive'),
  ('RCVIMTPLAIREHDNDASCQ', 'inactive'),
  ('VIFVGFWQWYSYISELDCNP', 'inactive');

###

Test: amyloid nucleation score (Sup35N fusion, yeast selection) (log enrichment); library NNK2; higher = more nucleation; inactive = no reads after selection
Class satisfied: amyloid nucleation score at least -0.3. Class not satisfied: amyloid nucleation score below -0.3.

INSERT INTO measurements (substance, group) VALUES
  ('MFLSNDIAFVKNVLNRIRYL', 'not satisfied'),
  ('HFRSLALISLAEKFITRIEK', 'satisfied'),
  ('YSFAMLGGQESRMSMCCGER', 'satisfied'),
  ('RLTLVNRAGCIVCNGQGCLQ', 'satisfied'),
  ('AEWISLQQFLSLQKEFWIKA', 'not satisfied'),
  ('FMITQSFSGT', 'not satisfied'),
  ('GTRYILVKGTMGYDLCYFLG', 'satisfied'),
  ('RVPTSNLWSGNFYTALRVTG', 'not satisfied'),
  ('GYSAYESANWRLA', 'satisfied'),
  ('IKYYVTVWSLESDTAWVGGL', 'satisfied'),
  ('TSSTTGSYLWEDEDYSYNFF', 'satisfied'),
  ('DFGYYREIHDEEECSCLKVY', 'not satisfied'),
  ('IEMHDINYNP', 'not satisfied');

###

Test: amyloid nucleation score (Sup35N fusion, yeast selection) (log enrichment); library NNK1; higher = more nucleation; inactive = no reads after selection
Returns the class for an entry based on its amyloid nucleation score. Class ranges: range 1: < 0.2; range 2: ≥ 0.2 and < 0.9; range 3: ≥ 0.9

INSERT INTO results (primary_sequence, group) VALUES
  ('KYLFFMVFQWS', 'range 2'),
  ('ILEYWSISKKPYMIVMGGRV', 'range 1'),
  ('FNVCLSKESVNLGRD', 'range 2'),
  ('RGMIFLHQASCLHRDN', 'range 1'),
  ('TAAYRFNESVHVSNSRFMVH', 'range 2'),
  ('GDHFPEDGYSLEIADR', 'range 1'),
  ('GYEVKMHYSVLIINNSCPCL', 'range 3'),
  ('GKFSDSHIVA', 'range 2'),
  ('GLYFGLQLTGVS', 'range 1'),
  ('YSVLNINLQFRSSLLGAFYP', 'range 3'),
  ('RYHRWFRVRSSENRWGIC', 'range 1'),
  ('TNNSWCFFLRLGYT', 'range 3'),
  ('MYNNTALRRSEYADCH', 'range 2'),
  ('TIVLLNCISIRLSIRFMFIP', 'range 1'),
  ('KVLELYRILYRREHNFWVEV', 'range 1'),
  ('YWPGLGFMFDNYSI', 'range 2'),
  ('LRHFSRSF', 'range 1'),
  ('VTWGSSPMQKFSMVQIKS', 'range 2'),
  ('EKSGAWSTVRRMISC', 'range 2'),
  ('CVDRQFAAVRQVTTIQTWCG', 'range 3'),
  ('DSGTLDQYH', 'range 1'),
  ('RCTLISRHDWGYANWMRLLL', 'range 3'),
  ('LRASAWHQFHFAV', 'range 2'),
  ('VAGAVNNSWWGLSNVARAKR', 'range 1'),
  ('AKVCLKSVTQFTTHLLMSRG', 'range 1'),
  ('SVVIFHHTICLERDAVRQKF', 'range 3'),
  ('LLEALQNLGRLLITTPLVV', 'range 2'),
  ('VPVVDNIVSIL', 'range 1'),
  ('YYRKHFRLYIIIWDLFKI', 'range 2'),
  ('ENEAGATYDGMMVVGSELSS', 'range 3'),
  ('RDVDRGMHQMAPSTGVRLVL', 'range 3'),
  ('LIYPGIVDFVFSDARQGCSR', 'range 3');
